test system: NCI-H226; assay: NCI tumour cell line growth inhibition, 48 h
The source made the active and inactive calls. Rule as the data show it: active = GI50 up to about 1.1 µM and inactive = higher.
readout-kind: GI50

Here are 4 compounds together with their reported answers.
compound	GI50
CC(=N\c1ccncc1)/C(C)=N/c1ccncc1	34 µM (inactive)
O=C(CC1(O)C(=O)Nc2c(Cl)ccc(Cl)c21)c1ccco1 (stereo not given)	19.7 µM (inactive)
c1ccc2c(c1)Nc1c3ccccc3nc3cccc-2c13	2.01 µM (inactive)
COC(=O)C1(C(=O)OC)CC2=C(S(=O)(=O)c3ccccc3)C[C@H](S(=O)(=O)c3ccccc3)[C@H]2C1	> 100 µM (inactive)

Q) Which GI50 is reported for this compound? O=C1CCC2(CCO1)OCCO2
A) > 100 µM (inactive)

Q) // query GI50 value for entry N#Cc1ccc(Cc2ccccn2)cc1Cl
A) > 100 µM (inactive)

Q) Which GI50 value is on record for O=C(N/C=C1\C(=O)Oc2ccccc2C1=O)Nc1ccccc1 ?
A) 23.5 µM (inactive)

Q) Request the reported GI50 associated with CC1OC(O[C@H]2/C=C/C=C/C=C/C=C/C=C/C=C/C=C/[C@H](C)[C@@H](O)[C@@H](C)[C@H](C)OC(=O)C[C@H](O)C[C@H](O)CC[C@@H](O)[C@H](O)C[C@H](O)C[C@]3(O)C[C@H](O)[C@@H](C(=O)O)[C@H](C2)O3)C(O)C(N)C1O (stereo not given in full)
A) > 100 µM (inactive)

Q) Fill in the blank: the reported GI50 of CC1=CC=C2c3ccccc3C=CN2C(=O)C1 is ____.
A) 54.8 µM (inactive)

Q) Which measured GI50 value corresponds to CC1(C2(C)OC(=O)c3ccccc32)OC(=O)c2ccccc21 (stereo not given) ?
A) > 100 µM (inactive)

Q) Quick one: GI50 of CCOC(=O)C(C(O)c1ccc([N+](=O)[O-])cc1)P(=O)(OCC)OCC (stereo not given) ?
A) > 100 µM (inactive)

Q) Name the recorded GI50 for C=CCc1cc(C=C(C#N)C#N)cc(OC)c1O .
A) > 100 µM (inactive)

Q) What does the data say about its GI50? Entry: COc1c(Cl)c(Cl)c(OC)c2c1C(=O)C=CC2=O
A) 33.5 µM (inactive)

Q) Would you kindly share the measured GI50 for Cc1ccc(/N=N/C(C(=O)c2ccccc2)C(=O)c2ccccc2)cc1 ?
A) 17.6 µM (inactive)

---

tested on: SW-620; assay: NCI tumour cell line growth inhibition, 48 h
Calls of active or inactive are those of the source. No stated cut-off is given here; in the data, active = GI50 up to about 1.1 µM and inactive = higher.
Recorded GI50 for the following molecules

# count of solved cases: 4
> print(dat)
                                   molecule  study.target  readout.kind               result
1  CC1CC(N)=Nc2ccccc2N1Cc1ccccc1 (stereo not given)        SW-620          GI50   12.6 µM (inactive)
2  COc1cccc(/C=C/C2=NN(c3cccc(S(=O)(=O)O)c3)C3(C2)SCC(=O)N3c2nc3ccccc3s2)c1 (stereo not given)        SW-620          GI50   47.9 µM (inactive)
3  Cc1cc2[nH]c3c(C#N)c4c(c(=O)n3c2cc1C)CCCC4        SW-620          GI50  > 100 µM (inactive)
4  COc1ccc(C/C(=N/O)C(=O)NCCc2cc(Br)c(OCCCN(C)C)c(Br)c2)cc1Br        SW-620          GI50   16.6 µM (inactive)

Query molecule follows.
Q) Identify the measured GI50 of O=C(CC1(O)C(=O)Nc2c(Cl)ccc(Cl)c21)c1ccco1 (stereo not given) for SW-620.
A) 20.1 µM (inactive)

---

system: NCI-H460; experiment: NCI tumour cell line growth inhibition, 48 h
The source made the active and inactive calls. Cut-off read from the data, not from the text of the source: active = GI50 up to about 1.1 µM and inactive = higher.
Form entry, call: pick from TRUE = active, FALSE = inactive

Reference set, count: 3
> print(dat)
                            smiles.notation  class.name
1  Cc1c(CCN2CCOCC2)c(N2CCOCC2)n2c(nc3ccccc32)c1C#N       FALSE
2  CN(Cc1cnc2nc(N)nc(N)c2n1)c1ccc(C(=O)NCCS(=O)(=O)O)cc1       FALSE
3  CC(=O)N(C(C)=O)n1c(Cc2ccc(Cl)cc2)nn(C(C)=O)c1=O       FALSE

Q) Answer briefly: the call reported for N#C/C(C(=S)Nc1ccccc1)=C(/N)N1CCCC1 in this assay.
A) FALSE

Q) Hi, do you know how CC(C)C(OC(=O)c1ccc(NCC2=CC(=O)C=CC2=O)cc1)C(C)C came out in this test?
A) FALSE

Q) Outcome logged for Cc1cc(=O)oc2cc(OS(C)(=O)=O)ccc12 in this assay:
A) FALSE

Q) Recorded test outcome, item Cn1ncc2c(Cl)ncnc21
A) FALSE

Q) Any idea what this test logged for c1ccc(C/C(=N\Nc2nc3ccccc3[nH]2)c2ccccn2)cc1 ?
A) TRUE

Q) Give the logged outcome of this assay for the following compound: COC(=O)c1cc2c(=O)n(C)c3ccccc3n2c1C(=O)OC
A) FALSE

Q) Just curious, what result did CN(C)C=C1C(=O)N(C)C(=O)N(C)C1=O get here?
A) FALSE

Q) Give the logged outcome of this assay for the following compound: Cc1nc2c(Br)cc(Br)cc2c(=O)n1-c1ccccc1N
A) FALSE

---

system: NCI-H23; assay: NCI tumour cell line growth inhibition, 48 h
The source made the active and inactive calls. Rule as the data show it: active = GI50 up to about 1.1 µM and inactive = higher.
Quick reference for GI50 among some compounds

Consider the following illustrative entries.
> print(dat)
                                   compound               result
1  COc1ccc(OCC(=N/NC(=O)c2ccncc2)/N=C/c2cccnc2)cc1  > 100 µM (inactive)
2  COc1cc(C2SCC(=O)N2NC(=O)c2ccc(NC(C)=O)cc2OC)ccc1O (stereo not given)   92.9 µM (inactive)
3  C[N+](C)(C)CC(=O)N/N=C(/C(=O)Nc1ccc(Br)cc1)C1C(=O)NC(=O)NC1=O  > 100 µM (inactive)
4  CN(C)Cc1cc(C(F)(F)F)ccc1C(O)(c1ccccc1)c1ccccc1   26.2 µM (inactive)
5  O=C1CSC(c2cccc(Cl)c2)N1c1c(O)c(Cl)cc(Br)c1Cl (stereo not given)   27.7 µM (inactive)
6     O=[N+]([O-])c1ccc(CSCc2ccc(Cl)cc2)cc1  > 100 µM (inactive)
7  C[n+]1c2ccccc2n2c3ccccc3c(NCCCN3CCOCC3)c(C#N)c21   1.29 µM (inactive)
8  NC(Cc1cc(Br)c(O)c(Br)c1)C(=O)O (stereo not given)  > 100 µM (inactive)
9           CC(=N\c1ccncc1)/C(C)=N/c1ccncc1   16.5 µM (inactive)

Q) API: value(readout=GI50, system=NCI-H23) for record O=c1[nH]c2cc([N+](=O)[O-])c(Nc3c4ccccc4nc4ccccc34)c([N+](=O)[O-])c2[nH]1
A) 3.49 µM (inactive)

---

tested on: UACC-62; experiment: NCI tumour cell line growth inhibition, 48 h
Calls of active or inactive are those of the source. Cut-off read from the data, not from the text of the source: active = GI50 up to about 1.1 µM and inactive = higher.
Just give me one of these, please: active, inactive

Q) Each molecule tested received a call. Report the one for COc1cc2cc(C(=O)N3CC(COS(C)(=O)=O)c4c3cc(N)c3ccccc43)[nH]c2c(OC)c1OC (stereo unspecified) .
A) active

Q) What classification did O=C(c1ccc(Cl)cc1)N(C(=S)OCCOc1ccccc1)c1ccccc1 end up with in this test?
A) inactive

Q) What call does the record list for CC1=CC=C2c3ccccc3C=CN2C(=O)C1 ?
A) inactive

Q) What did the test return for O=C1CSC(c2cccc(Cl)c2)N1c1c(O)c(Cl)cc(Br)c1Cl (stereo unspecified) ?
A) inactive

Q) Which outcome did this test record for the molecule Cc1c(CCN2CCOCC2)c(N2CCOCC2)n2c(nc3ccccc32)c1C#N ?
A) inactive

Q) Status in this test for CC(SC(=S)N1CCOCC1)c1cc2oc(=O)n(C)c2cc1Cl (stereo unspecified) ?
A) inactive

Q) For this molecule, state the assay outcome: O=[N+]([O-])c1cc2oc(CSc3ccccc3)nc2cc1Cl
A) inactive

Q) Field: outcome | Entry: COC(=O)C(F)C(Br)C(=O)OC (stereo unspecified)
A) inactive

Q) Recorded test outcome, item O=C(NN1C(=O)CSC1c1cccc(F)c1)c1ccncc1 (stereo unspecified)
A) inactive

Q) Called result for CN1C(=O)C(C(=O)Nc2ccccn2)C2C[C@@]1(C)Oc1ccccc12 (stereo partly specified)
A) inactive

Q) Identify the outcome logged in this assay for the molecule shown: CCCCCCN1CCc2c(C)c(C#N)c3nc4ccccc4n3c21
A) inactive

---

system: SF-539; experiment: NCI tumour cell line growth inhibition, 48 h
Activity calls are given as the source filed them. Rule as the data show it: active = GI50 up to about 1.1 µM and inactive = higher.
Respond only with the outcome that fits, drawn from 1 for active, 0 for inactive

Some solved cases for reference:
compound	class-name
COC(=O)[C@@H]1C=C[C@H](OC2OC(COC(C)=O)C(OC(C)=O)C(OC(C)=O)C2OC(C)=O)n2c(=O)n(-c3ccccc3)c(=O)n21 (stereo not given in full)	0
CCOC(=O)c1ccc(/N=C/c2ccc(N(CCC#N)S(=O)(=O)c3ccccc3)cc2C)cc1	0
C(=C\c1c2oc(-c3ccccc3)cc(-c3ccccc3)c-2c2ccccc12)/C=C1\c2ccccc2-c2c(-c3ccccc3)cc(-c3ccccc3)[o+]c21.[O-][Cl+3]([O-])([O-])[O-]	0

Q) What is the recorded call for this compound in the test? Cc1cccc(/N=C/C=C(\Cl)c2ccc3ccccc3c2)c1
A) 0

Q) For CC(C)(C)C(=O)C(Cc1ccccc1)C(=O)C(C)(C)C , which call appears in the assay record?
A) 0
